All figures here come from ChEMBL document CHEMBL1949556.

Listed here: items and their measured pIC50.
testedOn: Lipoprotein lipase (Homo sapiens, UniProt P06858)
Sequence (P06858 whole entry): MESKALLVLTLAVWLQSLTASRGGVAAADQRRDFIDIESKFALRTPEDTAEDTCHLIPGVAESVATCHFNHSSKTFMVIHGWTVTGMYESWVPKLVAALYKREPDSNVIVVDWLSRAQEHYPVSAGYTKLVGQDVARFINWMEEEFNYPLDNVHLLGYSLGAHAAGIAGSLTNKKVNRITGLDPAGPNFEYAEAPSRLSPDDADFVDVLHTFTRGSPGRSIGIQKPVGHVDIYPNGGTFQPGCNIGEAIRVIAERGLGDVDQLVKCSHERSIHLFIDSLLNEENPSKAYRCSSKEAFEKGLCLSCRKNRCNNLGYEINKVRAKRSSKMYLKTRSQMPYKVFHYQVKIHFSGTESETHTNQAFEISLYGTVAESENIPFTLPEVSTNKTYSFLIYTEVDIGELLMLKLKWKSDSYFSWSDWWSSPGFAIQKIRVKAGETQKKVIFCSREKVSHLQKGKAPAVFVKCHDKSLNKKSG
protocol: Inhibition of human lipoprotein lipase expressed using recombinant adenovirus using glycerol-tri[9,10(n)-3H]oleate after 1 hr by vesicle assay
pIC50: −log10 of the molar value.
metricName: pIC50

>  <inputSmiles>
CCCCCCCCCCCc1ccc(B2OC(C)(C)C(C)(C)O2)cc1

>  <measurement>
< 4.30

$$$$
>  <inputSmiles>
CCCCCCCCCc1cccc(B(O)O)c1

>  <measurement>
< 4.30

$$$$
>  <inputSmiles>
CCCCCCCCCc1ccccc1B(O)O

>  <measurement>
< 4.30

$$$$

###

testedOn: Endothelial lipase (Homo sapiens)
Sequence (Q9Y5X9 whole entry): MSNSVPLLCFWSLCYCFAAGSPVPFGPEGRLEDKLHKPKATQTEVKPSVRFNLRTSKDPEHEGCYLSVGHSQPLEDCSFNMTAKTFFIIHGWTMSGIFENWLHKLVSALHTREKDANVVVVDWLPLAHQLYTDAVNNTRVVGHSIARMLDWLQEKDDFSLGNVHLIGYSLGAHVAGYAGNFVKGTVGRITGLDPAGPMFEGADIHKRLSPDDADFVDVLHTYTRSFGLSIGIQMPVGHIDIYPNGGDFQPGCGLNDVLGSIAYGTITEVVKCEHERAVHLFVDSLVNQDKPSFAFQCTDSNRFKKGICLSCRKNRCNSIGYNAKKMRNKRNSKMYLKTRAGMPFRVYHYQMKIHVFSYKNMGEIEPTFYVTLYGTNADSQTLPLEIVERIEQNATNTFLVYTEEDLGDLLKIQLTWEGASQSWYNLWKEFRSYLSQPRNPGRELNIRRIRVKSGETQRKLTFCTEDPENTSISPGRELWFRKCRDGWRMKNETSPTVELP
protocol: Inhibition of human endothelial lipase expressed using recombinant adenovirus using glycerol-tri[9,10(n)-3H]oleate after 1 hr by vesicle assay
pIC50: −log10 of the molar value.
metricName: pIC50

>  <inputSmiles>
CCCCCc1cccc(B(O)O)c1

>  <metricName>
pIC50

>  <measurement>
4.89

$$$$
>  <inputSmiles>
CC1(C)OB(c2ccc(-c3ccccc3)cc2)OC1(C)C

>  <metricName>
pIC50

>  <measurement>
6.00

$$$$
>  <inputSmiles>
CCCCCCCCCc1cccc(B(O)O)c1

>  <metricName>
pIC50

>  <measurement>
5.55

$$$$
>  <inputSmiles>
CCCCCCCCCCCc1ccc(B(O)O)cc1

>  <metricName>
pIC50

>  <measurement>
5.70

$$$$
>  <inputSmiles>
CCCCCCCCCCCc1ccc(B2OC(C)(C)C(C)(C)O2)cc1

>  <metricName>
pIC50

>  <measurement>
5.35

$$$$
>  <inputSmiles>
CCCc1ccc(B2OC(C)(C)C(C)(C)O2)cc1

>  <metricName>
pIC50

>  <measurement>
5.30

$$$$
>  <inputSmiles>
CCCCCc1ccc(B2OC(C)(C)C(C)(C)O2)cc1

>  <metricName>
pIC50

>  <measurement>
5.59

$$$$
>  <inputSmiles>
CC1(C)OB(c2ccc(-c3ccc(F)cc3)cc2)OC1(C)C

>  <metricName>
pIC50

>  <measurement>
5.80

$$$$
>  <inputSmiles>
CC1(C)OB(c2ccc(-c3ccc4ccccc4c3)cc2)OC1(C)C

>  <metricName>
pIC50

>  <measurement>
5.70

$$$$
>  <inputSmiles>
CC1(C)OB(c2ccc(-c3ccco3)cc2)OC1(C)C

>  <metricName>
pIC50

>  <measurement>
5.72

$$$$
>  <inputSmiles>
CCCCCCCCCc1ccc(B(O)O)cc1

>  <metricName>
pIC50

>  <measurement>
6.00

$$$$
>  <inputSmiles>
CC1(C)OB(c2ccc(-c3ccoc3)cc2)OC1(C)C

>  <metricName>
pIC50

>  <measurement>
5.55

$$$$
>  <inputSmiles>
CC1(C)OB(c2ccc(-c3ccsc3)cc2)OC1(C)C

>  <metricName>
pIC50

>  <measurement>
5.89

$$$$
>  <inputSmiles>
CCCCCCCCCc1ccccc1B(O)O

>  <metricName>
pIC50

>  <measurement>
4.30

$$$$
